- Target or test system: T1, endothelin A receptor (ETaR) (Homo sapiens (assumed), UniProt P25101)
- T1 construct: endothelin A receptor (ETaR), a GPCR; plasmid and cells were gifts from Gmax Biopharm LLC; also called GPCR; ETaR-expressing CHO cells; source: CHO cells stably expressing and displaying ETaR (provided by Gmax Biopharm LLC); on cells, and in vesicles prepared from them
- T1 sequence (P25101 21-427): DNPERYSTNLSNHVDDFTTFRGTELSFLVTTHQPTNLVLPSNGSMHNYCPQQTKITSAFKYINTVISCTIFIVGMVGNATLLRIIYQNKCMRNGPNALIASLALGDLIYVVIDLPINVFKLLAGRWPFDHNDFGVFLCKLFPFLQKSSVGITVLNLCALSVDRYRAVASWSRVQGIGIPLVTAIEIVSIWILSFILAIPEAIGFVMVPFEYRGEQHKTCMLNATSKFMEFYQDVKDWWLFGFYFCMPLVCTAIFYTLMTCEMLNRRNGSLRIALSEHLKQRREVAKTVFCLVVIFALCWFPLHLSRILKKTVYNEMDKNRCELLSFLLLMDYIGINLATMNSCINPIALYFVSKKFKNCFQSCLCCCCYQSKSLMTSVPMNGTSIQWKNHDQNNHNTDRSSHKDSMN
- Assay remarks: flow cytometry on cells; competition: unlabelled scFv at 0.01 to 316 nM against FITC-labeled wild-type anti-GPCR at L = 150 nM on ETaR-expressing CHO cells, 1 h at 4 °C; Ki = IC50/(1 + L/Kd)
- Particulars: one partner purified
Endpoint name: Ki (nM)
Expressed in nM, but write only the number.

In the examples that follow, each entry is paired with its recorded Ki.
>  <Binder>
anti-GPCR (ETaR) antibody 80H4, scFv-His, mutant T113A-V64M (scFv, V domains shown, heavy-chain variable region as in m3; (G4S)3 linker; light-chain variable region as in m3; source: Expi293F, transfected, purified from supernatant (Ni-NTA); not shown: His tag, C-terminal, kept) VH: EVQLLESGGGLVQPGGSLRLSCAASGFTFSSYGMSWVRQAPGKGLEWVSAISTNGATAYYADSMKGRFTISRDNSKNTLYLQMNSLRAEDTAVYYCATEKGAMGYWGQGTLVAVSS VL: DIVMTQTPLSLSVTPGQPASISCRSSQNIVHSTGNTYLEWYLQKPGQSPQLLIYKVSNRFSGVPDRFSGSGSGTDFTLKISRVEAEDVGVYYCFQGSHFPFTFGQGTKVEIK

>  <Endpoint name>
Ki

>  <Recorded value>
83.4

$$$$
>  <Binder>
anti-GPCR (ETaR) antibody 80H4, scFv-His, mutant N28Y (scFv, V domains shown, heavy-chain variable region as in m3; (G4S)3 linker; light-chain variable region as in m3; source: Expi293F, transfected, purified from supernatant (Ni-NTA); not shown: His tag, C-terminal, kept) VH: EVQLLESGGGLVQPGGSLRLSCAASGFTFSSYGMSWVRQAPGKGLEWVSAISTNGATAYYADSVKGRFTISRDNSKNTLYLQMNSLRAEDTAVYYCATEKGAMGYWGQGTLVTVSS VL: DIVMTQTPLSLSVTPGQPASISCRSSQYIVHSTGNTYLEWYLQKPGQSPQLLIYKVSNRFSGVPDRFSGSGSGTDFTLKISRVEAEDVGVYYCFQGSHFPFTFGQGTKVEIK

>  <Endpoint name>
Ki

>  <Recorded value>
75.1

$$$$
>  <Binder>
anti-GPCR (ETaR) antibody 80H4, scFv-His, mutant T113A-V64M-N28Y (scFv, V domains shown, heavy-chain variable region as in m3; (G4S)3 linker; light-chain variable region as in m3; Combination of N28Y and T113A-V64M made by the authors; source: Expi293F, transfected, purified from supernatant (Ni-NTA); not shown: His tag, C-terminal, kept) VH: EVQLLESGGGLVQPGGSLRLSCAASGFTFSSYGMSWVRQAPGKGLEWVSAISTNGATAYYADSMKGRFTISRDNSKNTLYLQMNSLRAEDTAVYYCATEKGAMGYWGQGTLVAVSS VL: DIVMTQTPLSLSVTPGQPASISCRSSQYIVHSTGNTYLEWYLQKPGQSPQLLIYKVSNRFSGVPDRFSGSGSGTDFTLKISRVEAEDVGVYYCFQGSHFPFTFGQGTKVEIK

>  <Endpoint name>
Ki

>  <Recorded value>
22.1

$$$$

// switching to the query binder
query: What value of Ki has been reported for the following binder? anti-GPCR (ETaR) antibody 80H4, scFv-His, wild type (scFv, V domains shown, heavy-chain variable region of 80H4; (G4S)3 linker; light-chain variable region of 80H4; Order HV-(G4S)3-LV; made with a signal peptide (SP); also called WT; anti-GPCR-scFv-His; source: Expi293F, transfected, purified from supernatant (Ni-NTA); not shown: His tag, C-terminal, kept) VH: EVQLLESGGGLVQPGGSLRLSCAASGFTFSSYGMSWVRQAPGKGLEWVSAISTNGATAYYADSVKGRFTISRDNSKNTLYLQMNSLRAEDTAVYYCATEKGAMGYWGQGTLVTVSS VL: DIVMTQTPLSLSVTPGQPASISCRSSQNIVHSTGNTYLEWYLQKPGQSPQLLIYKVSNRFSGVPDRFSGSGSGTDFTLKISRVEAEDVGVYYCFQGSHFPFTFGQGTKVEIK
result: 300
